Overview of reported fold over background (A450) across a group of binders:
Molecular target: T1, mouse TREM2 full length stalk region peptide (aa 131-169) (mouse, UniProt Q99NH8 131-169, biotinylated (site not stated))
T1 peptide (looked up): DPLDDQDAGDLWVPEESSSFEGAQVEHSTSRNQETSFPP
Experiment: ELISA on biotinylated peptide captured by streptavidin; A450 normalised to isotype control
Please state the figure in fold; there is no need to write the unit.

As a guide, the following entries are already answered.
binder | valueType | experimentalResult
CL0020201 (antibody, V domains shown, also called Clone CL0020201) VH: EVQLQQSGPVLVKPGASVRMSCKPSGYTFTDYYMNWVKQSHGKSLEWIGSINPYTGGSSYNQNFRGKATLTVDKSSSTAYMELNSLTSEDSAVYYCARGSYYSNLGFAYWGQGTLVTVSA VL: DVQLTQSPSFLTASPGETITINCRASKSISKYLAWYQEKPGKTNKLLISSGSTLQSGIPSRFSGSGSGTDFTLTISSLEPEDFAMYYCQQYSEYPFTFGSGTKLEIK | fold over background (A450) | 5.4
CL0020103 (antibody, V domains shown, also called Clone CL0020103) VH: EVQLQQSGPELVKPGASVKISCKTSGYTFTEYTMHWVKESHGKSLEWIGGINPNKGGSSYNQKFKGKATLTVDKSSSTAYMDLRRLTSEDSAVYYCARGGYEYYALDYWGQGTSVTVSS VL: DIVMSQSPSSLTVSVGERVTMSCKSSQSLLYSRNQKNYLAWYQQKPGQSPKLLIYWASTRESGVPDRFTGSGSGTDFSLTISSVKAEDLAVYYCQQYYSYPPTFGGGTKLEIK | fold over background (A450) | 4.1
CL0020314 (antibody, V domains shown, also called Clone CL0020314) VH: DVKLVESGGGLVKLGGSLKLSCAASGFTFSSYYMSWVRQTPEKRLELVAAINTNGGRTYYPDTVKGRFTISRDNAKNTLYLQMSSLKSEDTALYYCARESDGGAFAYWGQGTLVTVSA VL: DVVMTQTPLSLPVSLGDQASISCRSSQSLVHSNGNTYLHWYLQKPGQSPKLLIYKVSNRFSGVPDRFSGSGSGTDFTLKISRVEAEDLGVYFCSQNTHVPLTFGAGTKLELK | fold over background (A450) | 1
CL0020107 (antibody, V domains shown, also called Clone CL0020107) VH: QVQLQQPGAELVKPGASVKMSCRASGYTFTNYWISWVKQRPGQGLEWIGDIYPHSTSTNYNERFRSKATLTVDKSSTTAYMQLSSLTSEDSAVYYCAREGFGISAWGQGTTLTVSS VL: QIVLTQSPAIMSASPGEKVTITCSATSSVSYMHWFQQKPGTSPKLWIYSTSNLASGVPARFSGSGSGTSHSLTISRMEAEDAATYYCQQRSSYPLTFGSGTKLELK | fold over background (A450) | 1.3
CL0020188 (antibody, V domains shown, also called Clone CL0020188) VH: EVKLLDSGGGLVQAGGSLRLSCAGSGFTFTDFYMSWIRQPPGKAPEWLGVIRNKANGYTAGYNPSVKGRFTISRDNTQNILYLQMNTLRAEDTAIYYCARLTYGFDYWGQGVMVTVSS VL: DIVMTQGALPNPVPSGESASITCQSSKSLLHSNGKTYLNWYLQRPGQSPQLLIYWMSTRASGVSDRFSGSGSGTDFTLKISSVEAEDVGVYYCQQFLEYPFTFGSGTKLEIK | fold over background (A450) | 33

Reported fold over background (A450) ( CL0020308 (antibody, V domains shown, also called Clone CL0020308) VH: QVQLKQSGPSLVQPSQSLSITCTVSGFSLTTYGIHWVRQSPGKGLEWLGVIWTGGSTAFNAAFMSRLSITKDNSKSQVFFKMNSLQADDTAIYYCAKVGFHSATDYWGQGTSVTVSS VL: DVLMTQTPLSLPVTLGDQASISCRSSQNLVHSNGNTYLEWYLQKPGQSPKLLIYKVSNRFSGVPDRFSGSGSGTDFTLKISRVEAEDLGLYYCFQGSHVPFTFGSGTKLEIK ) = 7.9

So for CL0020173 (antibody, V domains shown, also called Clone CL0020173) VH: EVKLLESGGGLVQPGSSMRLSCAASGFTFTDFYMNWIRQPAGRAPEWLGFFRNIVDGYTTEYNPSVKGRFTISRDNTQNMLYLQMNTLRAEDTATYYCARSGYSSYIYGGTFAYWGQGTLVTVSS VL: ETVMTQSPTSMSTSIGERVTLNCKASQSVGIHVDWYQQTPGQSPKLLIYGASNRHTGVPDRFTGSGFGRDFTLTISNVEAEDLAVYYCLQYGSIPWTFGGGTKLELK , the logged fold over background (A450) turned out to be 1.2

Briefly, fold over background (A450) measured for CL0020111 (antibody, V domains shown, also called Clone CL0020111) VH: QVQLQQPGADLVKPGASVKMSCKASGYTFTNYWITWVQQRPGQGLEWIGDIYPGSGNTNYNEKFRSKATLTVDTSSNTAYMQLSSLTSEDSAVYYCSREGYGISAWGQGTTLTVSS VL: QIVLTQSPAFMSASPGEKVTITCRASSSVSYMHWFQQKPGTSPKLWIFSTSNLASGVPARFSGSGSGTSHSLTISRMEAEDAATYYCQQRSGYPLTFGAGTKLELK : 1.1

Sample CL0020195 (antibody, V domains shown, also called Clone CL0020195) VH: EVQLVESGGGLVQPGRSMMLSCSASGFTFSNYHMAWVRQAPTTGLEWVASITTGSGNTYYRHSVKGRFTISRDNAKSTLYLQMDSLRSEDTASYYCARRWYGGYEGYYFDYWGQGVMVTVSS VL: DIQMTQSPSLLSASVGDRVTLSCKAGQNVNNYLAWYQQKLGEAPKLLIYNANILQTGFPSRFSGTGSGTDFTLTISSLQPEDVATYFCQQYNSWTTFGGGTKLELK ; fold over background (A450) observed: 1.1

Summary for this binder, CL0020214 (antibody, V domains shown, also called Clone CL0020214) VH: QVRLQQSGAELVRPGSSVKLSCKASGYAFSSYWMNWVKQRPGQGLEWIGQIYPGDGDTNYNGNFKGKATLTADNSSSTAYMQLSSLTSEDSAVYFCARRRNGDFGDYAMDYWGQGTSVTVSS VL: QIVLTQSPAIMSASPGEKVTISCSASSSVSYMCWYQQKPGSSPKPWIYRTSTLASGVPARFSGSGSGTSYSLTISSMEAADAATYYCQHYHSYPFTFGAGTKLELK : fold over background (A450) is 1.3
